Test: Antiproliferative activity against at human Splenocytes after 24 hrs by MTS assay
Type: cell-based
Settings: Splenocyte
Quantity Kind: pEC50
Remember, pEC50 is on a log scale: it is -log10 of the molar concentration.

## Input Requested read-out: pEC50. Entry: CCOC(=O)C(C)N1C2=NC(=O)C(C)N2c2ccccc21 (configuration not stated)
## Output 9.27

## Input # lookup: pEC50 of CCOC(=O)Cn1c(=N)n(CC(=O)OCC)c2ccccc21
## Output 7.84

## Input Fill blank: measured pEC50 of the compound N=c1n(CC(=O)N/N=C/c2ccc(F)cc2)c2ccccc2n1CC(=O)N/N=C/c1ccc(F)cc1 is ____.
## Output 7.77

## Input Query (compound): N=c1n(CC(=O)NCc2ccccc2)c2ccccc2n1CC(=O)NCc1ccccc1 ; field requested: pEC50
## Output 8.11

## Input Need pEC50 of N=c1n(CC(=O)NCCCN)c2ccccc2n1CC(=O)NCCCN , thanks.
## Output 10.30

## Input What value of pEC50 has been recorded for this entry: N=c1n(CC(=O)N/N=C/c2cccc(F)c2)c2ccccc2n1CC(=O)N/N=C/c1cccc(F)c1
## Output 7.96

## Input Any idea what its pEC50 is? The compound is N=c1n(CCCc2ccccc2)c2ccccc2n1CCCc1ccccc1
## Output 7.85
